Cited source for all entries: ChEMBL document CHEMBL1136067

Tested on: Nucleic Acid
Classification field. Basis: ΔTm. Definitions: bin A: < 10; bin B: ≥ 10 and < 20; bin C: ≥ 20

Past entries and their recorded results:
Query :: Input N=C(Nc1ccc(-c2ccc(-c3ccc(NC(=N)c4ccccc4)cc3)o2)cc1)c1ccccc1 ; output its category
Result :: bin C

Query :: Input N=C(N)Nc1ccc(-c2ccc(-c3ccc(NC(=N)N)cc3Cl)o2)c(Cl)c1 ; output its category
Result :: bin C

With those in mind, consider the next compound.
Query :: Input COc1cc(-c2ccc(-c3ccc(/N=C(\N)c4ccccn4)c(OC)c3)o2)ccc1/N=C(\N)c1ccccn1 ; output its category
Result :: bin B

---

System: Leishmania donovani
Assay: Inhibitory activity against Leishmania donovani (amastigote)
Assay type: functional, organism-based
Conditions: read-out: IC50
endpoint: pIC50
Give bare numbers, as −log10 of the molar value.

Worked set:
Query :: Quick one: pIC50 for CSc1cc(-c2ccc(-c3ccc(N=C(N)N)c(SC)c3)o2)ccc1N=C(N)N ?
Result :: 4.65

Query :: Quick one: pIC50 for N=C(N)Nc1ccc(-c2ccc(-c3ccc(NC(=N)N)cc3C(F)(F)F)o2)c(C(F)(F)F)c1 ?
Result :: 4.83

Query :: Quick one: pIC50 for CSc1cc(-c2ccc(-c3ccc(/N=C(\N)c4ccccn4)c(SC)c3)o2)ccc1/N=C(\N)c1ccccn1 ?
Result :: 6.46

Query :: Quick one: pIC50 for N=C(Nc1ccc(-c2ccc(-c3ccc(NC(=N)c4ccccn4)cc3Cl)o2)c(Cl)c1)c1ccccn1 ?
Result :: 6.18

Query :: Quick one: pIC50 for N=C(Nc1ccc(-c2ccc(-c3ccc(NC(=N)c4ccccn4)c(Cl)c3)o2)cc1Cl)c1ccccn1 ?
Result :: 6.29

Query :: Quick one: pIC50 for COc1cc(NC(=N)c2ccccn2)ccc1-c1ccc(-c2ccc(NC(=N)c3ccccn3)cc2OC)o1 ?
Result :: 7.00

Query :: Quick one: pIC50 for Cc1cc(NC(=N)c2ccccn2)ccc1-c1ccc(-c2ccc(NC(=N)c3ccccn3)cc2C)o1 ?
Result :: 6.42

Query :: Quick one: pIC50 for CCOc1cc(-c2ccc(-c3ccc(N=C(N)N)c(OCC)c3)o2)ccc1N=C(N)N ?
Result :: 4.95

Hey, can you go through the list below and give me pIC50 for every item?
1. CC(C)Oc1cc(NC(=N)N)ccc1-c1ccc(-c2ccc(NC(=N)N)cc2OC(C)C)o1
2. COc1cc(-c2ccc(-c3ccc(/N=C(\N)c4ccccn4)c(OC)c3)o2)ccc1/N=C(\N)c1ccccn1
3. N=C(N)Nc1ccc(-c2ccc(-c3ccc(NC(=N)N)cc3)o2)cc1

Result ::
5.02
6.54
4.96

---

System: Nucleic Acid
Kindly apply the following: true (1) if ΔTm is less than 20, false (0) in every other case.

Past entries and their recorded results:
Query :: Would you kindly verify if ΔTm of N=C(N)c1ccc(-c2ccc(-c3ccc(C(=N)N)cc3)o2)cc1 is strictly less than 20?
Result :: false (0)

Query :: Would you kindly verify if ΔTm of N=C(N)c1ccc(OCCCCCOc2ccc(C(=N)N)cc2)cc1 is strictly less than 20?
Result :: true (1)

Query :: Would you kindly verify if ΔTm of Cc1c(N=C(N)N)ccc(-c2ccc(-c3ccc(N=C(N)N)c(C)c3C)o2)c1C is strictly less than 20?
Result :: true (1)

***
Query :: Would you kindly verify if ΔTm of COc1cc(NC(=N)c2ccccn2)ccc1-c1ccc(-c2ccc(NC(=N)c3ccccn3)cc2OC)o1 is strictly less than 20?
Result :: true (1)

Query :: Would you kindly verify if ΔTm of Cc1cc(NC(=N)N)ccc1-c1ccc(-c2ccc(NC(=N)N)cc2C)o1 is strictly less than 20?
Result :: true (1)

Query :: Would you kindly verify if ΔTm of N=C(Nc1ccc(-c2ccc(-c3ccc(NC(=N)c4ccccn4)cc3Cl)o2)c(Cl)c1)c1ccccn1 is strictly less than 20?
Result :: true (1)
